# Protocol: Apparent permeability from apical to basolateral side of human Caco-2 cells at 100 uM after 90 mins
# Type: ADME, cell-based
# Papp A→B at 1.5 h, 100 µM annotations
Give me the value, and tack the unit on after it.

Below, each entry is followed by its recorded Papp A→B at 1.5 h, 100 µM result.
1) CC(C)C[C@@H](c1c(O)c(C=O)c(O)c(C=O)c1O)[C@@]1(C)CC[C@@H]2[C@@H]1[C@H]1[C@@H](CC[C@@]2(C)O)C1(C)C
1.8 ×10⁻⁶ cm/s
2) CC(C)C[C@H](c1c(O)c(C=O)c(O)c(C=O)c1O)[C@@]1(C)CC[C@@H]2[C@@H]1[C@H]1[C@@H](CC[C@@]2(C)O)C1(C)C
1.64 ×10⁻⁶ cm/s

**Query** For the compound Cc1cc(=O)c2c(O)cc(O[C@@H]3O[C@H](COC(=O)C4=CC[C@H](C(C)(C)O)CC4)[C@@H](O)[C@H](O)[C@H]3O)cc2o1 , report Papp A→B at 1.5 h, 100 µM.
**Result** 4.82 ×10⁻⁶ cm/s

###

# Protocol: Apparent permeability from apical to basolateral side of human Caco-2 cells at 50 uM after 90 mins
# Type: ADME, cell-based
Reported Papp A→B at 1.5 h, 50 µM by item:
Numbers only; they are read as ×10⁻⁶ cm/s.

Example cases with answers are listed next.
1. Cc1cc(=O)c2c(O)cc(O[C@@H]3O[C@H](COC(=O)C4=CC[C@H](C(C)(C)O)CC4)[C@@H](O)[C@H](O)[C@H]3O)cc2o1
5.99
2. CC(C)C[C@H](c1c(O)c(C=O)c(O)c(C=O)c1O)[C@@]1(C)CC[C@@H]2[C@@H]1[C@H]1[C@@H](CC[C@@]2(C)O)C1(C)C
1.71

From here, focus on the item given below.
**Query** Note Papp A→B at 1.5 h, 50 µM for the molecule shown: CC(C)C[C@@H](c1c(O)c(C=O)c(O)c(C=O)c1O)[C@@]1(C)CC[C@@H]2[C@@H]1[C@H]1[C@@H](CC[C@@]2(C)O)C1(C)C
**Result** 1.64

###

# Protocol: Apparent permeability from basolateral to apical side of human Caco-2 cells at 30 uM after 90 mins
# Format: ADME, cell-based
Measured quantity: Papp B→A at 1.5 h, 30 µM
Write the numeric value and append its unit.

Example cases with answers are listed next.
1) CC(C)C[C@H](c1c(O)c(C=O)c(O)c(C=O)c1O)[C@@]1(C)CC[C@@H]2[C@@H]1[C@H]1[C@@H](CC[C@@]2(C)O)C1(C)C [MACROCARPAL B]
1.84 ×10⁻⁶ cm/s
2) CC(C)C[C@@H](c1c(O)c(C=O)c(O)c(C=O)c1O)[C@@]1(C)CC[C@@H]2[C@@H]1[C@H]1[C@@H](CC[C@@]2(C)O)C1(C)C [MACROCARPAL A]
1.63 ×10⁻⁶ cm/s

Kindly review the next molecule as well.
**Query** Quickly give me recorded Papp B→A at 1.5 h, 30 µM for Cc1cc(=O)c2c(O)cc(O[C@@H]3O[C@H](COC(=O)C4=CC[C@H](C(C)(C)O)CC4)[C@@H](O)[C@H](O)[C@H]3O)cc2o1 [CYPELLOCARPA C]
**Result** 2.66 ×10⁻⁶ cm/s

###

# Protocol: Drug level in Caco-2 cells assessed as total recovery rate at 50 uM after 120 mins
# Type: ADME, cell-based
# Measurement context: human, read-out: Drug uptake
This section presents compounds with their documented recovery at 2 h, 50 µM values.
Supply the numeric figure in %, leaving out any unit text.

Would you please look over these solved cases?
1. CC(C)C[C@H](c1c(O)c(C=O)c(O)c(C=O)c1O)[C@@]1(C)CC[C@@H]2[C@@H]1[C@H]1[C@@H](CC[C@@]2(C)O)C1(C)C [MACROCARPAL B]
68.7
2. CC(C)C[C@@H](c1c(O)c(C=O)c(O)c(C=O)c1O)[C@@]1(C)CC[C@@H]2[C@@H]1[C@H]1[C@@H](CC[C@@]2(C)O)C1(C)C [MACROCARPAL A]
69.8

From here, focus on the item given below.
**Query** Indicate the recorded recovery at 2 h, 50 µM value for this compound: Cc1cc(=O)c2c(O)cc(O[C@@H]3O[C@H](COC(=O)C4=CC[C@H](C(C)(C)O)CC4)[C@@H](O)[C@H](O)[C@H]3O)cc2o1 [CYPELLOCARPA C]
**Result** 52.7
